Parameter: Kd. Scope: all listed entries.
# SYSTEM_TESTED: T1, Lin28 (Lin28A) (Mus musculus (murine), UniProt Q8K3Y3 1-209)
# T1 sequence: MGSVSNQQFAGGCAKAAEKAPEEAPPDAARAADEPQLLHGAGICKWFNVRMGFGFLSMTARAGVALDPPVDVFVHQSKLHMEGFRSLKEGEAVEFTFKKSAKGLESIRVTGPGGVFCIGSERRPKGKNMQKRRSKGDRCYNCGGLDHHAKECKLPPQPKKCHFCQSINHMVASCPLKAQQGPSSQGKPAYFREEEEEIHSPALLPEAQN
# RUN_DESCRIPTION: EMSA; EMSA: 50 mM Tris pH 7.6, 50 mM NaCl, 10% glycerol, 0.05% NP-40 alternative, 2 mM DTT, 4°C; 2-AP: 50 mM Tris pH 7.6, 50 mM NaCl, 10% glycerol, 4°C; FRET: EMSA buffer, 30°C
# STUDY_CONDITIONS: protein: recombinant; label: 5'-32P

BINDER: AGGAGAUAUCUGCA (ssRNA) [TL33-46]
Kd (nM): 0.5
--
BINDER: GGUACAGGAGAUAU (ssRNA) [TL28-41]
Kd (nM): 0.29
--
BINDER: AUUGAGGGUCUAUA (ssRNA) [TL5-18]
Kd (nM): 1.7
